Test system: FOXM1^A2 mRNA and FOXM1^BC mRNA
Assay: Splicing assay (FOXM1), qPCR of isoform mRNAs
Format: cell-based
Settings: read-out: Splice EC50 (nM) FoxM1 A mRNA increase (exon excluded)
REPORTED ENDPOINT: EC50

>  <GIVEN SMILES>
CN(c1ccc(-c2ccc(-c3cn[nH]c3)cc2O)nc1)C1CC(C)(C)NC(C)(C)C1

>  <OBSERVED VALUE>
> 1000 nM

$$$$

Input line: Quick one: EC50 for "CN(c1ccc(-c2ccc(-c3cn[nH]c3)cc2O)nn1)[C@H]1C[C@H]2C[C@@H]1CN2" ?
Output line: 101 to 250 nM

Input line: Any idea what EC50 was measured for "Oc1cc(-c2cn[nH]c2)ccc1-c1ccc(O[C@H]2C[C@H]3COC[C@@H](C2)N3)nn1" ?
Output line: > 1000 nM

Input line: Please report the recorded EC50 for "CN(c1ccc(-c2ccc(-c3ccn(CF)c(=O)c3)cc2O)nn1)[C@H]1C[C@]2(C)CC[C@](C)(C1)N2" .
Output line: < 10 nM

Provenance of the data: patent US11008572B2
